GI50 values for the compounds below.
Tested on: UO-31
protocol: Cytotoxicity against human UO31 cells assessed as growth inhibition after 48 hrs by sulforhodamine B assay
Format: functional
condition label: UO-31, 48 h

{"columns": ["molecule smiles", "GI50 / µM"],
 "data": [
  ["COc1cc(C(=O)/C=C/c2cc(-c3ccc4c(c3)OCO4)n[nH]2)cc(OC)c1OC", 1.34],
  ["COc1ccc(C(=O)/C=C/c2cc(-c3ccc(OC)c(OC)c3)n[nH]2)cc1OC", 1.5],
  ["COc1ccc(-c2cc(/C=C/C(=O)c3ccc4c(c3)OCO4)[nH]n2)cc1OC", 1.5],
  ["COc1ccc(C(=O)/C=C/c2cc(-c3ccc4c(c3)OCO4)n[nH]2)cc1OC", 2.32]
]}

---

System: HOP-62
protocol: Cytotoxicity against human HOP62 cells assessed as growth inhibition after 48 hrs by sulforhodamine B assay
Assay type: functional
condition label: HOP-62, 48 h

{"columns": ["molecule smiles", "readout units", "limit operator", "LC50"],
 "data": [
  ["COc1ccc(C(=O)/C=C/c2cc(-c3cc(OC)c(OC)c(OC)c3)n[nH]2)cc1OC", "µM", "=", 5.35],
  ["COc1ccc(-c2cc(/C=C/C(=O)c3ccc(OC)c(OC)c3)[nH]n2)cc1", "µM", "=", 35.3],
  ["COc1ccc(-c2cc(/C=C/C(=O)c3ccc(N)cc3)[nH]n2)cc1OC", "µM", "=", 32],
  ["COc1ccc(-c2cc(/C=C/C(=O)c3cc(OC)c(OC)c(OC)c3)[nH]n2)cc1OC", "µM", "=", 8.85],
  ["COc1cc(-c2cc(/C=C/C(=O)c3ccc(F)c(F)c3)[nH]n2)cc(OC)c1OC", "µM", ">", 100]
]}

---

log10 CC50 values for the compounds below.
System: NCI-H23
protocol: Cytotoxicity against human NCI-H23 cells assessed as growth inhibition after 48 hrs by sulforhodamine B assay
Format: functional
condition label: NCI-H23, 48 h, read-out: LC50 (the source's name)
assay endpoint: log10 CC50 (log10 of the value in µM)

{"columns": ["molecule smiles", "measured target", "log10 CC50"],
 "data": [
  ["COc1ccc(-c2cc(/C=C/C(=O)c3ccc(N)cc3)[nH]n2)cc1", "NCI-H23", 1.84],
  ["COc1cc(C(=O)/C=C/c2cc(-c3cc(OC)c(OC)c(OC)c3)n[nH]2)cc(OC)c1OC", "NCI-H23", 1.81],
  ["COc1ccc(-c2cc(/C=C/C(=O)c3ccc(N)cc3)[nH]n2)cc1OC", "NCI-H23", 1.98],
  ["COc1ccc(C(=O)/C=C/c2cc(-c3cc(OC)c(OC)c(OC)c3)n[nH]2)cc1OC", "NCI-H23", 1.36],
  ["COc1cc2c(cc1OC)C(=O)/C(=C/c1cc(-c3ccc4c(c3)OCO4)n[nH]1)C2", "NCI-H23", 0.91]
]}

---

System: TK-10
protocol: Cytotoxicity against human TK10 cells assessed as growth inhibition after 48 hrs by sulforhodamine B assay
Format: functional
condition label: TK-10, 48 h
TGI values for the compounds below.
assay endpoint: TGI (µM)

{"columns": ["molecule smiles", "readout units", "quantitative readout"],
 "data": [
  ["COc1ccc(C(=O)/C=C/c2cc(-c3ccc4c(c3)OCO4)n[nH]2)cc1OC", "µM", 8.97],
  ["COc1ccc(-c2cc(/C=C/C(=O)c3ccc(OC)c(OC)c3)[nH]n2)cc1", "µM", 4.31],
  ["COc1ccc(-c2cc(/C=C/C(=O)c3ccc(N)cc3)[nH]n2)cc1OC", "µM", 23],
  ["COc1ccc(C(=O)/C=C/c2cc(-c3cc(OC)c(OC)c(OC)c3)n[nH]2)cc1OC", "µM", 2.6]
]}

---

System: Malme-3M
protocol: Cytotoxicity against human MALME-3M cells assessed as growth inhibition after 48 hrs by sulforhodamine B assay
Assay type: functional
Threshold check on TGI: at or above 4 µM gives 1, strictly below gives 0.

{"columns": ["molecule smiles", "measured target", "class name"],
 "data": [
  ["COc1ccc(C(=O)/C=C/c2cc(-c3ccc(OC)c(OC)c3)n[nH]2)cc1OC", "Malme-3M", 1],
  ["COc1ccc(C(=O)/C=C/c2cc(-c3cc(OC)c(OC)c(OC)c3)n[nH]2)cc1OC", "Malme-3M", 0],
  ["COc1cc(-c2cc(/C=C/C(=O)c3ccc(N)cc3)[nH]n2)cc(OC)c1OC", "Malme-3M", 1],
  ["COc1ccc(C(=O)/C=C/c2cc(-c3cc(OC)c(OC)c(OC)c3)n[nH]2)cc1", "Malme-3M", 0],
  ["COc1ccc(-c2cc(/C=C/C(=O)c3ccc(OC)c(OC)c3)[nH]n2)cc1", "Malme-3M", 0],
  ["COc1cc2c(cc1OC)C(=O)/C(=C/c1cc(-c3ccc4c(c3)OCO4)n[nH]1)C2", "Malme-3M", 0]
]}

---

System: OVCAR-8
protocol: Cytotoxicity against human OVCAR8 cells assessed as growth inhibition after 48 hrs by sulforhodamine B assay
Type: functional
condition label: OVCAR-8, 48 h
assay endpoint: LC50

{"columns": ["molecule smiles", "result"],
 "data": [
  ["COc1cc(-c2cc(/C=C/C(=O)c3ccc(F)c(F)c3)[nH]n2)cc(OC)c1OC", "> 100 µM"],
  ["COc1ccc(-c2cc(/C=C/C(=O)c3ccc(OC)c(OC)c3)[nH]n2)cc1", "57.6 µM"],
  ["COc1cc(C(=O)/C=C/c2cc(-c3ccc4c(c3)OCO4)n[nH]2)cc(OC)c1OC", "24.8 µM"],
  ["COc1ccc(-c2cc(/C=C/C(=O)c3ccc(N)cc3)[nH]n2)cc1", "> 100 µM"]
]}

---

Tested on: MDA-MB-468
protocol: Cytotoxicity against human MDA-MB-468 cells assessed as growth inhibition after 48 hrs by sulforhodamine B assay
Type: functional
condition label: MDA-MB-468, 48 h
TGI values for the molecules below.

{"columns": ["molecule smiles", "readout units", "TGI"],
 "data": [
  ["COc1cc(-c2cc(/C=C/C(=O)c3ccc(Cl)c(Cl)c3)[nH]n2)cc(OC)c1OC", "µM", 7.22],
  ["COc1ccc(C(=O)/C=C/c2cc(-c3cc(OC)c(OC)c(OC)c3)n[nH]2)cc1", "µM", 2.65],
  ["COc1ccc(-c2cc(/C=C/C(=O)c3ccc(N)cc3)[nH]n2)cc1", "µM", 2.09],
  ["COc1cc(-c2cc(/C=C/C(=O)c3ccc4c(c3)OCO4)[nH]n2)cc(OC)c1OC", "µM", 2.86],
  ["COc1ccc(C(=O)/C=C/c2cc(-c3ccc(OC)c(OC)c3)n[nH]2)cc1OC", "µM", 2.55],
  ["COc1cc(-c2cc(/C=C/C(=O)c3ccc(F)c(F)c3)[nH]n2)cc(OC)c1OC", "µM", 9.47]
]}

---

Tested on: MCF7
protocol: Cytotoxicity against human MCF7 cells assessed as cell growth at 0.1 uM after 48 hrs by sulforhodamine B assay relative to control
Format: functional
condition label: MCF7, 48 h, read-out: Activity

{"columns": ["molecule smiles", "growth at 0.1 µM"],
 "data": [
  ["COc1ccc(C(=O)/C=C/c2cc(-c3cc(OC)c(OC)c(OC)c3)n[nH]2)cc1", "93%"],
  ["COc1ccc(-c2cc(/C=C/C(=O)c3ccc(N)cc3)[nH]n2)cc1OC", "89%"],
  ["COc1ccc(C(=O)/C=C/c2cc(-c3ccc4c(c3)OCO4)n[nH]2)cc1OC", "94%"],
  ["COc1cc(-c2cc(/C=C/C(=O)c3ccc(Cl)c(Cl)c3)[nH]n2)cc(OC)c1OC", "105%"],
  ["COc1cc(C(=O)/C=C/c2cc(-c3ccc4c(c3)OCO4)n[nH]2)cc(OC)c1OC", "94%"]
]}

---

Test system: HCT-15
protocol: Cytotoxicity against human HCT15 cells assessed as cell growth at 100 uM after 48 hrs by sulforhodamine B assay relative to control
Type: functional
condition label: HCT-15, 48 h, read-out: Activity

{"columns": ["molecule smiles", "readout units", "growth at 100 µM"],
 "data": [
  ["COc1cc(C(=O)/C=C/c2cc(-c3cc(OC)c(OC)c(OC)c3)n[nH]2)cc(OC)c1OC", "%", -72],
  ["COc1cc(-c2cc(/C=C/C(=O)c3ccc(N)cc3)[nH]n2)cc(OC)c1OC", "%", -17],
  ["COc1ccc(-c2cc(/C=C/C(=O)c3ccc(N)cc3)[nH]n2)cc1", "%", -59],
  ["COc1ccc(-c2cc(/C=C/C(=O)c3cc(OC)c(OC)c(OC)c3)[nH]n2)cc1OC", "%", -49],
  ["COc1cc(-c2cc(/C=C/C(=O)c3ccc(F)c(F)c3)[nH]n2)cc(OC)c1OC", "%", 2],
  ["COc1cc(-c2cc(/C=C/C(=O)c3ccc4c(c3)OCO4)[nH]n2)cc(OC)c1OC", "%", -10],
  ["COc1ccc(-c2cc(/C=C/C(=O)c3ccc(N)cc3)[nH]n2)cc1OC", "%", -71],
  ["COc1ccc(C(=O)/C=C/c2cc(-c3ccc(OC)c(OC)c3)n[nH]2)cc1OC", "%", -10],
  ["COc1ccc(C(=O)/C=C/c2cc(-c3cc(OC)c(OC)c(OC)c3)n[nH]2)cc1OC", "%", -60]
]}

Source of measurements: ChEMBL document CHEMBL4138123
